Tested System: human natriuretic peptide receptor B (NPR-B) (human) (UniProt P20594)
Sequence (P20594 23-1047): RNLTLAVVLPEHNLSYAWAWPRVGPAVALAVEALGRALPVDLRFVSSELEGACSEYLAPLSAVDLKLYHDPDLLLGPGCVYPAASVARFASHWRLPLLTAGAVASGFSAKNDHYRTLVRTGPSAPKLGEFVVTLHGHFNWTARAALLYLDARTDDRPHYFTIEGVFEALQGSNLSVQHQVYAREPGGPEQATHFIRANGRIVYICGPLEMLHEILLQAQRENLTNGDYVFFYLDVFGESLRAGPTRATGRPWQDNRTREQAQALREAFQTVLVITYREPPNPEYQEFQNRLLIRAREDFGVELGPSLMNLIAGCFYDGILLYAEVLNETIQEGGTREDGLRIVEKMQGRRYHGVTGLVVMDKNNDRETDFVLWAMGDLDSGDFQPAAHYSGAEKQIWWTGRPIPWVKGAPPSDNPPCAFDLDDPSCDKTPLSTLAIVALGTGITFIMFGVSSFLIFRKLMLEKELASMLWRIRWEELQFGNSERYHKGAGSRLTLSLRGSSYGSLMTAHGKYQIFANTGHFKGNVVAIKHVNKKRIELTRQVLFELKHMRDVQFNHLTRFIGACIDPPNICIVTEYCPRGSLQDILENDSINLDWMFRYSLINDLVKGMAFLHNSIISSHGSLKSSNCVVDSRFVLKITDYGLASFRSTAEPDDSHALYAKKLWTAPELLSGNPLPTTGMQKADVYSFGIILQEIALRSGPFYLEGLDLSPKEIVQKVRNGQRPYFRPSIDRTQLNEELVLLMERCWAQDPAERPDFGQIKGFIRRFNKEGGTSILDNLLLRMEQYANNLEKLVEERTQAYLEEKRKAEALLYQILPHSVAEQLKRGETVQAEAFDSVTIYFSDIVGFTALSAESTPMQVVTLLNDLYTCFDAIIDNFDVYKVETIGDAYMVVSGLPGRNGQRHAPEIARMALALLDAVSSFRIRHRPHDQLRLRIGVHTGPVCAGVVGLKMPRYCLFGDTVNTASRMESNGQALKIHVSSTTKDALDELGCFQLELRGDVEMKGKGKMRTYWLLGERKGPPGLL
Measurement Notes: cell-based or functional assay
Ends that are not written are not given here.
Experimental Readout: EC50 ratio versus CDNP on NPR-B, membrane cGMP assay
Form: value (number only, do not type unit).

Answered examples (3):
>  <Binder>
GLSKGCFGLKLDRIGSMSGLGCPSLRAPRPNAPSTSA (ends and bridges not checked; cysteine pairing not given here) [CDNP-A5]

>  <Observed>
0.24

$$$$
>  <Binder>
GLSKGCFGLKLDRIGSMSGLGCPSLAAPRPNAPSTSA (ends and bridges not checked; cysteine pairing not given here) [CDNP-A4A5]

>  <Observed>
0.49

$$$$
>  <Binder>
GLSKGCFGLKLDRIGSMSGLGCPSSRAPRPNAPSTSA (ends and bridges not checked; cysteine pairing not given here) [CDNP-S3A5]

>  <Observed>
1.08

$$$$

// next item, EC50 ratio versus CDNP on NPR-B, membrane cGMP assay requested
Please look up its EC50 ratio versus CDNP on NPR-B, membrane cGMP assay: GLSKGCFGLKLDRIGSMSGLGCPSLADPRPNAPSTSA (ends and bridges not checked; cysteine pairing not given here) [CDNP-A4] 2.31
